SYSTEM_UNDER_TEST: BIR3 domain of human XIAP (residues 252-350) (Homo sapiens (Human), UniProt P98170)
TEST_SUMMARY: XIAP in vitro competitive displacement binding assay (fluorescence polarization)
ASSAY_CONDITIONS: read-out: IC50 or PI Xiap: IC50
Structures can show the parent of a compound that is named as a salt.
Rule: measured IC50 below 0.3 µM gets criterion met; anything equal to or greater than 0.3 µM gets criterion not met.

{"COMPOUND": "COC[C@H]1CN[C@H](C)CN1CC(=O)N1CC(C)(C)c2ccc(CN3CCCC3=O)cc21 [Example 125, hydrochloride]", "CATEGORY": "criterion not met"}
{"COMPOUND": "C[C@@H]1CN(CC(=O)N2CC(C)(C)c3cnc(Cc4ccc(F)cc4F)cc32)[C@@H](CN2CCC(F)(F)C2)CN1 [Example 208, dihydrochloride]", "CATEGORY": "criterion met"}
{"COMPOUND": "COC[C@H]1CN[C@H](C)CN1CC(=O)N1CC2(Cc3ccccc3C2)c2ccc(Cl)cc21", "CATEGORY": "criterion met"}
{"COMPOUND": "COC[C@H]1CN[C@H](C)CN1CC(=O)N1CC(C)(C)c2ccc(S(=O)(=O)CC(C)C)cc21 [Example 64, dihydrochloride salt]", "CATEGORY": "criterion met"}
{"COMPOUND": "C[C@@H]1CN(CC(=O)N2CC(C)(C)c3cnc(Cc4ccc(F)cc4F)cc32)[C@@H](CN2CCC(=O)C2)CN1 [Example 207, dihydrochloride]", "CATEGORY": "criterion met"}
{"COMPOUND": "COC[C@H]1CN[C@H](C)CN1CC(=O)N1CC(C)(C(=O)OC)c2ccc(Br)cc21 (stereo partly drawn) [Example 129, hydrochloride]", "CATEGORY": "criterion not met"}

====

SYSTEM_UNDER_TEST: BIR3 domain of human cIAP-1 (residues 267-363) (Homo sapiens (Human), UniProt Q13490)
TEST_SUMMARY: cIAP-1 in vitro competitive displacement binding assay (fluorescence polarization; Probe A AVPIK(5&6FAM)-amide or Probe B AbuRPFK(5&6FAM)-amide)
ASSAY_CONDITIONS: read-out: IC50 or PI cIAP1: IC50
pIC50: −log10 of the molar value. Structures can show the parent of a compound that is named as a salt.

{"COMPOUND": "CC[C@H]1CN[C@H](C)CN1CC(=O)N1CC(C)(C)c2cc(F)c(S(=O)(=O)c3ccccc3)cc21 [Example 48, dihydrochloride salt]", "pIC50": 7.19}
{"COMPOUND": "C[C@@H]1CN(CC(=O)N2CC(C)(C)c3ncc(C(F)(F)C4CCC4)cc32)[C@@H](CN2CCCC2=O)CN1 [Example 226, dihydrochloride]", "pIC50": 7.68}
{"COMPOUND": "C[C@@H]1CN(CC(=O)N2CC(C)(C)c3cnc(Oc4ccccc4Cl)cc32)[C@@H](C(=O)N2CCOCC2)CN1 [Example 165, dihydrochloride]", "pIC50": 7.85}
{"COMPOUND": "C[C@@H]1CN(CC(=O)N2CC(C)(C)c3cc(F)c(S(=O)(=O)N4CCCC4)cc32)CCN1 [Example 49, dihydrochloride salt]", "pIC50": 5.39}
{"COMPOUND": "COC[C@H]1CN[C@H](C)CN1CC(=O)N1CC(C)(C)c2cnc(C(=O)c3ccccc3)cc21 [Example 96, dihydrochloride salt]", "pIC50": 7.11}
{"COMPOUND": "C[C@@H]1CN(CC(=O)N2CC(C)(C)c3cc(F)c(S(=O)(=O)c4ccccc4)cc32)CCN1 [Example 47, dihydrochloride salt]", "pIC50": 6.41}
{"COMPOUND": "COC[C@H]1CN[C@H](C)CN1CC(=O)N1CC(C)(C)c2cnc(-c3cnn(C)c3)cc21 [Example 124, dihydrochloride]", "pIC50": 6.26}
{"COMPOUND": "COC[C@H]1CN[C@H](C)CN1CC(=O)N1CC(C)(C)c2cnc(-c3ccoc3)cc21 [Example 145, dihydrochloride]", "pIC50": 6.74}
{"COMPOUND": "CC[C@@H]1COCCN1C[C@H]1CN[C@H](C)CN1CC(=O)N1CC(C)(C)c2ncc(C(C)(F)F)cc21 [Example 253, dihydrochloride]", "pIC50": 7.77}
{"COMPOUND": "COC[C@H]1CN[C@H](C)CN1CC(=O)N1CC(C)(C)c2cnc(-c3ccsc3)cc21 [Example 126, dihydrochloride]", "pIC50": 7.07}
{"COMPOUND": "COC[C@H]1CN[C@H](C)CN1CC(=O)N1CC(C)(C)c2cnc(-c3cc4ccccc4o3)cc21 [Example 150, dihydrochloride]", "pIC50": 7.85}
{"COMPOUND": "COC[C@H]1CN[C@H](C)CN1CC(=O)N1CC(C)(C)c2ccc(S(=O)(=O)Cc3ccccc3)cc21 [Example 70, dihydrochloride salt]", "pIC50": 6.09}
{"COMPOUND": "C[C@@H]1CN(CC(=O)N2CC(C)(C)c3ncc(C(C)(F)F)cc32)[C@@H](CN2CCc3cccnc32)CN1 [Example 222, dihydrochloride]", "pIC50": 6.85}

====

SYSTEM_UNDER_TEST: BIR3 domain of human XIAP (residues 252-350) (Homo sapiens (Human))
TEST_SUMMARY: XIAP in vitro competitive displacement binding assay (fluorescence polarization)
ASSAY_CONDITIONS: read-out: IC50 or PI Xiap: IC50
Counter-ions that a name gives are not always drawn.
Catalogue of IC50 readings, one per entry.

{"MOLECULE": "C[C@@H]1CN(CC(=O)N2CCc3cnc(-c4cc(Cl)ccc4F)cc32)CCN1 [Example 38, hydrochloride salt]", "IC50, nM": 5500}
{"MOLECULE": "C[C@@H]1CN(CC(=O)N2CC(C)(C)c3cnc(Cc4ccc(F)cc4F)cc32)[C@@H](Cn2ncccc2=O)CN1 [Example 194, dihydrochloride]", "IC50, nM": 55}
{"MOLECULE": "C[C@@H]1CN(CC(=O)N2CC(C)(C)c3ncc(Cc4ccc(F)cc4F)cc32)[C@@H](CN2CCOCC2)CN1 [Example 236, dihydrochloride]", "IC50, nM": 58}
{"MOLECULE": "C[C@@H]1CN(CC(=O)N2CC(C)(C)c3ncc(C(F)(F)c4ccccc4)cc32)[C@@H](CN2CC[C@@H](F)C2)CN1 [Example 221, dihydrochloride]", "IC50, nM": 73}
{"MOLECULE": "C[C@@H]1CN(CC(=O)N2CC(C)(C)c3cnc(Cc4ccc(F)cc4)cc32)[C@@H](CN2CCOCC2)CN1 [Example 237, hydrochloride]", "IC50, nM": 55}
{"MOLECULE": "C[C@@H]1CN(CC(=O)N2CC(C)(C)c3cc(F)c(S(=O)(=O)C4CC4)cc32)CCN1 [Example 57, dihydrochloride salt]", "IC50, nM": 810}
{"MOLECULE": "COC[C@H]1CN[C@H](C)CN1CC(=O)N1C[C@](C)(c2cc(C)no2)c2ccc(Cc3ccccc3)cc21 [Example 174, hydrochloride]", "IC50, nM": 760}
{"MOLECULE": "C[C@@H]1CN(CC(=O)N2CC(C)(C)c3cc(F)c(S(=O)(=O)N4CCCC4)cc32)CCN1 [Example 49, dihydrochloride salt]", "IC50, nM": 640}
{"MOLECULE": "C[C@@H]1CN(CC(=O)N2CC3(CCC3)c3ccc(Cl)cc32)CCN1 [Example 55, hydrochloride salt]", "IC50, nM": 12000}
{"MOLECULE": "CNS(=O)(=O)c1cc2c(cc1Br)CCN2C(=O)CN1CCN[C@H](C)C1 [Example 25, hydrochloride salt]", "IC50, nM": 1600}
{"MOLECULE": "COC[C@H]1CN[C@H](C)CN1CC(=O)N1CC(C)(C)c2cc(OC)ncc21 [Example 65, hydrochloride salt]", "IC50, nM": 6000}
{"MOLECULE": "CC[C@H]1CN[C@H](C)CN1CC(=O)N1CC(C)(C)c2cc(F)c(S(=O)(=O)c3ccccc3)cc21 [Example 48, dihydrochloride salt]", "IC50, nM": 97}
{"MOLECULE": "C[C@@H]1CN(CC(=O)N2CC(C)(C)c3cnc(C(F)(F)c4ccccc4)cc32)[C@@H](C(=O)N(C)C)CN1 [Example 158, dihydrochloride]", "IC50, nM": 49}

====

SYSTEM_UNDER_TEST: BIR3 domain of human XIAP (residues 252-350) (Homo sapiens (Human))
TEST_SUMMARY: XIAP in vitro competitive displacement binding assay (fluorescence polarization)
ASSAY_CONDITIONS: 1 h, read-out: IC50 or PI Xiap: PI
Structures can show the parent of a compound that is named as a salt.
Property: inhibition at 0.04 µM; scope: individual molecules
MEASUREMENT_LABEL: inhibition at 0.04 µM

{"MOLECULE": "C[C@@H]1CN(CC(=O)N2CC(C)(C)c3cnc(C(F)(F)c4ccccc4)cc32)[C@@H](C(=O)N2CCOCC2)CN1 [Example 178, dihydrochloride]", "OBSERVED": "50%"}
{"MOLECULE": "C[C@@H]1CN(CC(=O)N2CC(C)(C)c3ncc(C(F)(F)c4ccccc4)cc32)[C@@H](CN2CCOCC2)CN1 [Example 232, dihydrochloride]", "OBSERVED": "48%"}
{"MOLECULE": "C[C@@H]1CN(CC(=O)N2CC(C)(C)c3cnc(C(F)(F)c4ccccc4)cc32)[C@@H](CN2CCCC2=O)CN1 [Example 173, dihydrochloride]", "OBSERVED": "73%"}
{"MOLECULE": "Cc1cnn(C[C@H]2CN[C@H](C)CN2CC(=O)N2CC(C)(C)c3cnc(C(F)(F)c4ccccc4)cc32)c1 [Example 159, dihydrochloride]", "OBSERVED": "56%"}
{"MOLECULE": "C[C@@H]1CN(CC(=O)N2CC(C)(C)c3cnc(Oc4ccccc4Cl)cc32)[C@@H](C(=O)N2CCOCC2)CN1 [Example 165, dihydrochloride]", "OBSERVED": "65%"}
{"MOLECULE": "CC[C@@H]1COCCN1C[C@H]1CN[C@H](C)CN1CC(=O)N1CC(C)(C)c2ncc(Cc3ccc(F)cc3)cc21 [Example 254, dihydrochloride]", "OBSERVED": "51%"}
{"MOLECULE": "C[C@@H]1CN(CC(=O)N2CC(C)(C)c3cnc(Cc4ccc(F)cc4F)cc32)[C@@H](Cn2ccccc2=O)CN1 [Example 193, dihydrochloride]", "OBSERVED": "44%"}
{"MOLECULE": "C[C@@H]1CN(CC(=O)N2CC(C)(C)c3cnc(C(F)(F)c4ccccc4)cc32)[C@@H](CN2CCOCC2)CN1 [Example 224, dihydrochloride]", "OBSERVED": "77%"}
{"MOLECULE": "CCCC(F)(F)c1cnc2c(c1)N(C(=O)CN1C[C@@H](C)NC[C@@H]1CN1CCOC[C@H]1CC)CC2(C)C [Example 248, dihydrochloride]", "OBSERVED": "69%"}
{"MOLECULE": "C[C@@H]1CN(CC(=O)N2CC(C)(C)c3cnc(Oc4ccccc4Cl)cc32)[C@@H](C(=O)N(C)C)CN1 [Example 151, dihydrochloride]", "OBSERVED": "48%"}
{"MOLECULE": "C[C@@H]1CN(CC(=O)N2CC(C)(C)c3cnc(Cc4ccccc4)cc32)[C@@H](CN2CCCC2=O)CN1 [Example 172, dihydrochloride]", "OBSERVED": "58%"}
{"MOLECULE": "C[C@@H]1CN(CC(=O)N2CC(C)(C)c3cnc(C(F)(F)c4ccccc4)cc32)[C@@H](CN2CC[C@@H](F)C2)CN1 [Example 213, dihydrochloride]", "OBSERVED": "61%"}

Values compiled from patent US9018214B2.
